- Test system: MS2 coat protein
- experiment: apparent KD of MS2 coat protein; designed switch direction (-1 OFF switch, 1 ON switch): -1; higher = weaker reporter binding
- conditionNotes: input ligand: none
experimentalEndpoint: apparent KD of MS2 coat protein (nM)
Expressed in nM, but write only the number.

[[record]]
chain = "CUGCCAACGAAGCUUGUCGACAUGAGGAUCACCCAUGUUUCGCAAAGUGUUACAAAAAAAUAUCUGUAUGAAAAUGU [JR_Sensorv2_yov_Sub1319] (Eterna round: R96, puzzle: Sensor v2, turn-off variant)"
experimentalendpoint = "apparent KD of MS2 coat protein"
testvalue = 15.9

[[record]]
chain = "GUGUGCACGCUGCGAUCCUACAUGAGGAUCACCCAUGUGGUCUGGUGGCGUGGGUCACCGGACUUGGCUCGUCUUGC [salish99_S_TOV1_R5_072] (Eterna round: R97, puzzle: Sensor, turn-off variant 1)"
experimentalendpoint = "apparent KD of MS2 coat protein"
testvalue = 35.8


Observed apparent KD of MS2 coat protein, MS2 coat protein, GAUCAUGCAGGAUAUACAGUAACCAUGAAAACAUGGUUGCUACAUGAGGAUCACCCAUGUAGAAGGGCAUGAUC [Omei Ex2 A2] (Eterna round: R97, puzzle: Exclusion 2) : 16.9

Observed apparent KD of MS2 coat protein, MS2 coat protein, UUGUGCACGCUGCGAUCCUACAUGAGGAUCACCCAUGUGGUCUGGUGGCGUGGGUCACCGGACUUGGCUCGUCUUGU [salish99_S_TOV1_R5_080] (Eterna round: R97, puzzle: Sensor, turn-off variant 1) : 80.8

====

Let's look at some sequences and their measured apparent KD of MS2 coat protein.
- Tested on: MS2 coat protein
- experiment: apparent KD of MS2 coat protein; designed switch direction (-1 OFF switch, 1 ON switch): -1; higher = weaker reporter binding
- conditionNotes: input ligand: none
Expressed in nM, but write only the number.

Observe how each entry below is paired with its result.
[[record]]
chain = "AGUACUAUCACGAAAGUGAUAGUACAAUAAGCUAGUGAAACAUGAGGAUCACCCAUGUCCUCAUUAGCUCGUCUUAU [JL turnoff v2 78] (Eterna round: R96, puzzle: Sensor v2, turn-off variant 2)"
testvalue = 16.4

[[record]]
chain = "CUCAUGUGAGGAUAUAGUGCGUCUUCUAUUAUUAUUGAGUACUAGAAGGCACAUGAGGAUCACCCAUGUAGCAC [Ex4 - 3 - 45] (Eterna round: R96, puzzle: Exclusion 4)"
testvalue = 57.6


Value of measured apparent KD of MS2 coat protein for the entry GACUUGUCAGGAUAUCUUACAUUUGCAUCGUAGUUACCGUUGGAGAAGGGACAUGAGGAUCACCCAUGUUUGGC [tap-tap-tappy24] (Eterna round: R97, puzzle: Exclusion 4) : 28.9

Value of measured apparent KD of MS2 coat protein for the entry GUCCUGGACUAUCACAAGCACAUGAGGAUCACCCAUGUCAUGGGUAGAUCCCUAAAUAAAGAUACUGCUCGUCUUAU [Cac sensor turnoff var1 sub6] (Eterna round: R97, puzzle: Sensor, turn-off variant 1) : 300

====

- Tested on: MS2 coat protein
- experiment: apparent KD of MS2 coat protein, switch ON state; designed switch direction (-1 OFF switch, 1 ON switch): 1; higher = weaker reporter binding
- conditionNotes: FMN input: 0 or 200 uM; Eterna round: R93 (includes R88 designs)
experimentalEndpoint: apparent KD of MS2 coat protein
Kindly format the answer as number then unit.

Value of measured apparent KD of MS2 coat protein for the entry AACAAUCUAUCUGAGGAUAUGUGUCAAAAGACAUGAGGAUCACCCAUGUAAAAACAUGAAAAGACACAGAAGGCAGAUAGAUUGA [SS2: 1153] : 21.4 nM

Value of measured apparent KD of MS2 coat protein for the entry AAAAAACAUGAGGAUCACCCAUGUCUUUUGACAUGAGGAUAUGUACAGACUUCGGUCUGUACAGAAGGCAUGUAAA [SS1 - 1028] : 31.1 nM

Value of measured apparent KD of MS2 coat protein for the entry AAGAGACAUGAGGAUCACCCAUGUAGGAUUAUGGGAGGAUAUACAAAGACGAGAGUCAGAGUAGAAGGCCUAGGAU [salish99-ss1-130(!)] : 21.5 nM

Value of measured apparent KD of MS2 coat protein for the entry AAAAGACAUGAGGAUCACCCAUGUCCUCGGACAUGAGGAUAUGUACAGACUUCGGUCUGUACAGAAGGCAUGAAAA [SS1 - 1064] : 52 nM
